Tested on: NCI-H841 complex tumor spheroid viability
Experiment: Anticancer human tumor NCI-H841 cell line growth inhibition;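 note: spheroids exposed to compounds for 7 days before readout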
Conditions: curve of first compound; second compound 100 µM
Protocol: Multicellular complex tumor spheroid response to DNA repair inhibitors in combination with DNA-damaging drugs This study explores the anticancer activities of DNA-damaging drugs and inhibitors of DNA damage repair, both as single agents and in combinations. […] Twenty-six patient-derived or established malignant cell lines were evaluated representing sarcoma, melanoma, small cell lung cancer (SCLC), non-small cell lung cancer (NSCLC), as well as bladder, ovarian and pancreatic cancers. […]
# IC50 per entry
Return type: number; implicit unit nM.

| compound | target of assay | test value |
| --- | --- | --- |
| Cc1cc(C)c(CNC(=O)c2cc(-c3ccc(CN4CCOCC4)cc3)cc3c2cnn3C2CCCC2)c(=O)[nH]1 + Cn1nnc2c(C(N)=O)ncn2c1=O | NCI-H841 complex tumor spheroid viability | 7700 |

q: Output IC50 of CNCc1ccc(-c2cc(-c3nc(-c4ccc(S(=O)(=O)C(C)C)cc4)cnc3N)on2)cc1 + Cn1nnc2c(C(N)=O)ncn2c1=O
a: 49.8

q: Output IC50 of COc1ccc([C@@H](O)c2cc(-c3ncnc4cc(N5CCOCC5)ccc34)c(F)cc2Cl)nn1 + Cn1nnc2c(C(N)=O)ncn2c1=O
a: 1820
